biological target: ATP-dependent translocase ABCB1 (MDR1) (Homo sapiens, UniProt P08183); test: in vitro; conditions: dog, MDCK-MDR1, Ratio_Papp
Sequence (P08183 whole entry): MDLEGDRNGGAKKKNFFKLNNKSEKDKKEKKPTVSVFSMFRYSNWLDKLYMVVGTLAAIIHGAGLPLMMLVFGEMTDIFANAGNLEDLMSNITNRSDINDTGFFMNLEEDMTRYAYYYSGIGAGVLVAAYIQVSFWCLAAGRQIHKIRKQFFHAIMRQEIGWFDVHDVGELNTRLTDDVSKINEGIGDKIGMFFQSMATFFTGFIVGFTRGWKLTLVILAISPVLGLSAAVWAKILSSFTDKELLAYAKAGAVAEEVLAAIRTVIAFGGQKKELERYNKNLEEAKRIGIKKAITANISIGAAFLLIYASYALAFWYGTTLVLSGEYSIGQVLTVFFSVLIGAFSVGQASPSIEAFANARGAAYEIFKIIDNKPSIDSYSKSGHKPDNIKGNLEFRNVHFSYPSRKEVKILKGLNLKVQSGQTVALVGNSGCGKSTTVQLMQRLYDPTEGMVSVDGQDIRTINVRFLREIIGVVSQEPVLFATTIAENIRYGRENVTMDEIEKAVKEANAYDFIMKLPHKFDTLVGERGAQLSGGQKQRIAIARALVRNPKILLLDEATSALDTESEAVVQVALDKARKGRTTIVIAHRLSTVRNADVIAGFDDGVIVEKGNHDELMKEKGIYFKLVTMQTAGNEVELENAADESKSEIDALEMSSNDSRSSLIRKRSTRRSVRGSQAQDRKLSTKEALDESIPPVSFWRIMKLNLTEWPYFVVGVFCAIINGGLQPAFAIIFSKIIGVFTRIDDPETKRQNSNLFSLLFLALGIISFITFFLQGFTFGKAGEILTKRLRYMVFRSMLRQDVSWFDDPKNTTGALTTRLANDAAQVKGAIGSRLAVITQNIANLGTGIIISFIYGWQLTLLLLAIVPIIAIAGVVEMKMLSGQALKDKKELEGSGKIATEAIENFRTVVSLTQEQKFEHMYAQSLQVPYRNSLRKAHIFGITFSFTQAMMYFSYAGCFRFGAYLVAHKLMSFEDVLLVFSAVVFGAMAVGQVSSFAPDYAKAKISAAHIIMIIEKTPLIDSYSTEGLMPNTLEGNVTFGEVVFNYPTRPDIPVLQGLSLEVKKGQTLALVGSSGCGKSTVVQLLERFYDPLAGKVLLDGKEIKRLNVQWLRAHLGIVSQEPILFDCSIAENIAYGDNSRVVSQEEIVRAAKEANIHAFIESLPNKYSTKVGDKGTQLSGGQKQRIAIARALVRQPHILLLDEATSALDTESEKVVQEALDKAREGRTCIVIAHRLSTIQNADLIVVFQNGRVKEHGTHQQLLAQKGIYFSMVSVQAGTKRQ
Description: Ratio of apparent permeability from basolateral to apical side over apical to basolateral side determined in MDR1-MDCKII cells
reported-endpoint: efflux ratio
Lab note: jot down the number only; don't add units.

Consider the reported efflux ratio for these compounds:
Input line: Form: Entry = "CC(C)(C)NC(=O)[C@@H]1C[C@@H]2CCCC[C@@H]2CN1C[C@@H](O)[C@H](Cc1ccccc1)NC(=O)[C@H](CC(N)=O)NC(=O)c1ccc2ccccc2n1" | System = ATP-dependent translocase ABCB1 (MDR1) (Homo sapiens, UniProt P08183) | efflux ratio = ____
Output line: 165

Input line: Form: Entry = "COC(=O)[C@@H]1[C@H]2C[C@H]3c4[nH]c5ccccc5c4CCN3C[C@@H]2CC[C@@H]1O" | System = ATP-dependent translocase ABCB1 (MDR1) (Homo sapiens, UniProt P08183) | efflux ratio = ____
Output line: 1.17

Input line: Form: Entry = "COC(=O)Nc1nc2ccc(C(=O)c3ccccc3)cc2[nH]1" | System = ATP-dependent translocase ABCB1 (MDR1) (Homo sapiens, UniProt P08183) | efflux ratio = ____
Output line: 0.91

Input line: Form: Entry = "Nc1nc(N)c2nc(-c3ccccc3)c(N)nc2n1" | System = ATP-dependent translocase ABCB1 (MDR1) (Homo sapiens, UniProt P08183) | efflux ratio = ____
Output line: 0.99

Input line: Form: Entry = "COc1cc(Cc2cnc(N)nc2N)cc(OC)c1OC" | System = ATP-dependent translocase ABCB1 (MDR1) (Homo sapiens, UniProt P08183) | efflux ratio = ____
Output line: 3.61

Input line: Form: Entry = "OC[C@@H](O)[C@@H](O)[C@H](O)[C@H](O)CO" | System = ATP-dependent translocase ABCB1 (MDR1) (Homo sapiens, UniProt P08183) | efflux ratio = ____
Output line: 0.82

More entries:
Input line: Form: Entry = "CC[C@]1(O)C[C@H]2CN(CCc3c([nH]c4ccccc34)[C@@](C(=O)OC)(c3cc4c(cc3OC)N(C=O)[C@H]3[C@@](O)(C(=O)OC)[C@H](OC(C)=O)[C@]5(CC)C=CCN6CC[C@]43[C@@H]65)C2)C1" | System = ATP-dependent translocase ABCB1 (MDR1) (Homo sapiens, UniProt P08183) | efflux ratio = ____
Output line: 6.31

Input line: Form: Entry = CN(Cc1cnc2nc(N)nc(N)c2n1)c1ccc(C(=O)N[C@@H](CCC(=O)O)C(=O)O)cc1 [METHOTREXATE] | System = ATP-dependent translocase ABCB1 (MDR1) (Homo sapiens, UniProt P08183) | efflux ratio = ____
Output line: 0.67

Input line: Form: Entry = "CC[C@H]1OC(=O)[C@H](C)[C@@H](O[C@H]2C[C@@](C)(OC)[C@@H](O)[C@H](C)O2)[C@H](C)[C@@H](O[C@@H]2O[C@H](C)C[C@H](N(C)C)[C@H]2O)[C@](C)(OC)C[C@@H](C)C(=O)[C@H](C)[C@@H](O)[C@]1(C)O" | System = ATP-dependent translocase ABCB1 (MDR1) (Homo sapiens, UniProt P08183) | efflux ratio = ____
Output line: 31.3

* * *

target: ATP-dependent translocase ABCB1 (MDR1) (Homo sapiens); test: in vitro; conditions: dog, MDCK-MDR1
Description: Apparent permeability (Papp) from basolateral to apical side determined in MDR1-MDCKII cells
Listing: Papp B→A of selected compounds
Express your answer in ×10⁻⁶ cm/s, writing the number without its unit.

Input line: Which Papp B→A value belongs to "CCOc1ccc(-c2nc3cc(-c4nc5cc(N6CCN(C)CC6)ccc5[nH]4)ccc3[nH]2)cc1" ?
Output line: 2.6

More entries:
Input line: Which Papp B→A value belongs to CN(C)C(=O)C(CCN1CCC(O)(c2ccc(Cl)cc2)CC1)(c1ccccc1)c1ccccc1 [LOPERAMIDE] ?
Output line: 77.6

Input line: Which Papp B→A value belongs to COc1cc2c(c(OC)c1OC)-c1ccc(OC)c(=O)cc1[C@@H](NC(C)=O)CC2 [COLCHICINE] ?
Output line: 20.2

Input line: Which Papp B→A value belongs to Cc1ncc2n1-c1ccc(Cl)cc1C(c1ccccc1F)=NC2 [MIDAZOLAM] ?
Output line: 56.4
